molecular target: Catechol O-methyltransferase (Rattus norvegicus); test: Ability to inhibit Catechol O-methyltransferase kinetic inhibition Kii constant was reported.
property.measured: Kii (µM)
Unit µM implied. Number only.

Past entries and their recorded results:
{"molecule.smiles": "COc1c(O)cc(C=O)cc1Br", "reported.measurement": 16.5}
{"molecule.smiles": "COc1c(O)cc(C=O)cc1I", "reported.measurement": 56.6}
{"molecule.smiles": "COc1c(O)cc(C=O)cc1F", "reported.measurement": 48.4}
{"molecule.smiles": "COc1c(O)cc(C=O)cc1Cl", "reported.measurement": 10.8}

Next item in the queue.
Reported Kii ( COc1c(O)cc(C=O)cc1O ) = 16.1

* * *

Target: Catechol O-methyltransferase (Rattus norvegicus)
Sequence (whole entry): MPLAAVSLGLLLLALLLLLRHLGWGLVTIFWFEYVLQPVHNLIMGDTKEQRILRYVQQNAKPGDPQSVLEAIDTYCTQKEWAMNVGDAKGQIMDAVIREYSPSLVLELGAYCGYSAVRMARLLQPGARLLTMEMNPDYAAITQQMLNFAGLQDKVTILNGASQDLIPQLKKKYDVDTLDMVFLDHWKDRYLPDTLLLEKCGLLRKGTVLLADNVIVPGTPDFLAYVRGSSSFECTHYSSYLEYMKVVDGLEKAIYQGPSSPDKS
Experiment: Ability to inhibit Catechol O-methyltransferase kinetic inhibition Kis constant was reported.
Measured Kis of individual entries
Unit µM implied. Number only.

{"molecule.smiles": "COc1c(O)cc(C=O)cc1O", "unit.abbreviation": "µM", "reported.measurement": 9.98}

Reported Kis ( COc1c(O)cc(C=O)cc1F ) = 56.9

Reported Kis ( COc1c(O)cc(C=O)cc1I ) = 111

Reported Kis ( COc1c(O)cc(C=O)cc1[N+](=O)[O-] ) = 0.7

Reported Kis ( COc1c(O)cc(C=O)cc1Br ) = 31.8

Reported Kis ( COc1c(O)cc(C=O)cc1Cl ) = 31.6
